Where these numbers come from: ChEMBL document CHEMBL4808148

Below are molecules with their IC50 as measured on UniProt Q9UBN7.
Form field: result (number plus unit)

Example entries and their recorded answers appear below.
molecule=COc1cccc2c1C(=O)c1c(O)c3c(c(O)c1C2=O)C[C@@](O)(C(=O)CO)C[C@@H]3O[C@H]1C[C@H](N)[C@H](O[C@@H]2CCCCO2)[C@H](C)O1 result="1260 nM"
molecule="COC(=O)CC1CC(c2ccc(O)cc2)=NO1 (stereo not given)" result="986 nM"
molecule=C#Cc1cccc(Nc2ncnc3cc(OC)c(OCCCCCCC(=O)NO)cc23)c1 result="765 nM"
molecule=Cc1ccc(F)c(NC(=O)Nc2ccc(-c3cccc4[nH]nc(N)c34)cc2)c1 result="1190 nM"
molecule=O=S(=O)(O)c1ccc2[nH]c(-c3ccccc3)nc2c1 result="2320 nM"

Q. // IC50 lookup, key: O=c1c(O)c(-c2cc(O)c(O)c(O)c2)oc2cc(O)cc(O)c12
A. 1560 nM

Q. // IC50 lookup, key: CN(C)C(=O)Nc1cccc(-c2ccc(N(C)C)cc2)c1
A. 1610 nM

Q. // IC50 lookup, key: CC(C)Oc1ccc2c(=O)c(-c3ccccc3)coc2c1
A. 920 nM

Q. // IC50 lookup, key: c1ccc(-c2n[nH]c3c2oc2ccccc23)cc1
A. 1950 nM

###

Below are compounds with their IC50 as measured on Protein deacetylase HDAC6 (Homo sapiens).
Just the number in nM, nothing appended.

Example entries and their recorded answers appear below.
compound=O=C(/C=C/c1ccc2ccccc2n1)c1ccncc1 experimental_readout=IC50 value_units=nM numeric_readout=1500
compound=Cc1ccc(O)c(/N=N/c2ccccc2)n1 experimental_readout=IC50 value_units=nM numeric_readout=221
compound=CCN(CC)c1ccc(/C=N/NC(=O)c2ccc(O)cc2)cc1 experimental_readout=IC50 value_units=nM numeric_readout=2030

Q. Observed IC50 on Protein deacetylase HDAC6 (Homo sapiens) for Cc1cc(-c2ccc(/N=N/c3ccc4c(S(=O)(=O)O)cc(S(=O)(=O)O)c(N)c4c3O)c(C)c2)ccc1/N=N/c1ccc2c(S(=O)(=O)O)cc(S(=O)(=O)O)c(N)c2c1O [EVANS BLUE FREE ACID] , please.
A. 1950

Q. Observed IC50 on Protein deacetylase HDAC6 (Homo sapiens) for CN(C)c1ccc(C(=O)NCCCCCCC(=O)NO)cc1 , please.
A. 27.4

Q. Observed IC50 on Protein deacetylase HDAC6 (Homo sapiens) for COc1cc(OC)c2c(=O)[nH]c(-c3cc(C)c(OCCO)c(C)c3)nc2c1 [APABETALONE] , please.
A. 1690

Q. Observed IC50 on Protein deacetylase HDAC6 (Homo sapiens) for O=C(CCCCCCC(=O)NO)NO [SUBEROHYDROXAMIC ACID] , please.
A. 65.9

Q. Observed IC50 on Protein deacetylase HDAC6 (Homo sapiens) for Cc1ccc(OCCSc2ncccn2)c(Br)c1 , please.
A. 485

Q. Observed IC50 on Protein deacetylase HDAC6 (Homo sapiens) for N=C(N)c1cc2ccc(OC(=O)c3cccs3)cc2s1 , please.
A. 4110

Q. Observed IC50 on Protein deacetylase HDAC6 (Homo sapiens) for O=C(Nc1ccccc1C(=O)Nc1ccc(CCO)cc1)c1ccc([N+](=O)[O-])cc1 , please.
A. 2230

Q. Observed IC50 on Protein deacetylase HDAC6 (Homo sapiens) for O=c1c(-c2ccc(O)cc2)coc2cc(O)ccc12 [DAIDZEIN] , please.
A. 917

###

inhibition by entry:
Biological target: Protein deacetylase HDAC6 (Homo sapiens)
Details: at 10 µM
Just the number in %, nothing appended.

Example entries and their recorded answers appear below.
compound=COc1cc2nc(C3CC3)nc(N3CCN(c4ccccc4OC)CC3)c2cc1OC system_name="Protein deacetylase HDAC6 (Homo sapiens)" value_units=% numeric_readout=56.3
compound=CC(C)(C)c1ccc(-c2nc3c(N4CCN(Cc5ccc6nccnc6c5)CC4)cccc3[nH]2)cc1 system_name="Protein deacetylase HDAC6 (Homo sapiens)" value_units=% numeric_readout=108
compound="O=c1cc(-c2ccccc2)oc2cc(O)cc(O)c12 [CHRYSIN]" system_name="Protein deacetylase HDAC6 (Homo sapiens)" value_units=% numeric_readout=102
compound=CN(C)c1nc(N)c(C(=O)Nc2cccnc2)nc1Cl system_name="Protein deacetylase HDAC6 (Homo sapiens)" value_units=% numeric_readout=101
compound=CC(C)c1ccc2oc3nc(N)c(C(=O)O)cc3c(=O)c2c1 system_name="Protein deacetylase HDAC6 (Homo sapiens)" value_units=% numeric_readout=108

Q. // inhibition lookup, key: CCc1ccc(OCc2ccccc2C(=O)Nc2ccc3nc(C)cc(N)c3c2)cc1
A. 78.9

Q. // inhibition lookup, key: CC(C)(C)c1ccc(-c2nc3ccccc3[nH]2)cc1
A. 103

Q. // inhibition lookup, key: O=C(Oc1cccc2cccnc12)c1ccccc1 [BENZOXIQUINE]
A. 76.7

Q. // inhibition lookup, key: O=C1c2ccccc2C(=O)C1c1ccc(Br)cc1
A. 38.3

Q. // inhibition lookup, key: CCCCOC(=O)c1ccc(O)cc1
A. 81.3

###

inhibition by entry:
Molecular target: Protein deacetylase HDAC6 (Homo sapiens) (UniProt Q9UBN7)
Sequence (Q9UBN7 whole entry): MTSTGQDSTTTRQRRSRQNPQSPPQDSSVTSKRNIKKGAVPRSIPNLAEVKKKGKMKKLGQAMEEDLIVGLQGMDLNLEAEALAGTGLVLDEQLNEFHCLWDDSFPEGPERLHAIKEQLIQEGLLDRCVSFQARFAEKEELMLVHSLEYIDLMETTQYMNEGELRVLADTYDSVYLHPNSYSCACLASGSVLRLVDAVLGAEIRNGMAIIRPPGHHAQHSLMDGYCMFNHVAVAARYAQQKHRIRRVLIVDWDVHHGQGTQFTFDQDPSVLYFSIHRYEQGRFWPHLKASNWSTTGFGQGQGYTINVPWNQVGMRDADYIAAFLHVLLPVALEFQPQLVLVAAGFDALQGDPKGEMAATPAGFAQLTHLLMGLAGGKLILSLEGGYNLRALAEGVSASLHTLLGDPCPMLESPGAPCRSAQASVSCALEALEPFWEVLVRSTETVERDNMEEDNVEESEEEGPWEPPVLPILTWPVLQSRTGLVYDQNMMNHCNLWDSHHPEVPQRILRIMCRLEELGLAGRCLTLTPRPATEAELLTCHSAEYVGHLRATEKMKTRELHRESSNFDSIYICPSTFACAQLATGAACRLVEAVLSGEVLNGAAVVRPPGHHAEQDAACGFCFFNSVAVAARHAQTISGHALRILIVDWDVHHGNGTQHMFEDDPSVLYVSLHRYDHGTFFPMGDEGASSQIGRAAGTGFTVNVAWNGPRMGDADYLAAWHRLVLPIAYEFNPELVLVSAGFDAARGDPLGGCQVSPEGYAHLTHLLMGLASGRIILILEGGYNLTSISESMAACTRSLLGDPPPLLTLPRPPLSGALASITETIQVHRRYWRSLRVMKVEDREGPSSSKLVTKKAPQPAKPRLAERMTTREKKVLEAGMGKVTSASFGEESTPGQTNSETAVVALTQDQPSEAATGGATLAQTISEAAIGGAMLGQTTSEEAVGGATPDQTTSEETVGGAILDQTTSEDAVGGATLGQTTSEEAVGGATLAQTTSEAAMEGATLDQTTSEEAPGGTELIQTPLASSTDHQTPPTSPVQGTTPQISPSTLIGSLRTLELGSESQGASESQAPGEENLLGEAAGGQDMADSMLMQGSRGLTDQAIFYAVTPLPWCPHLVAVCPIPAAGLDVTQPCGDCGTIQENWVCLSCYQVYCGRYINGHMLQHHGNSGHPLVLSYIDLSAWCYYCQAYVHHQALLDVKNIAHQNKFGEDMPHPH
Conditions: at 10 µM
Just the number in %, nothing appended.

molecule="O=C(OCC(O)CO)c1ccccc1Nc1ccnc2cc(Cl)ccc12 (centres undefined)" numeric_readout=83.6
molecule=CCC(=O)NO numeric_readout=37.4
molecule=CCCCOC(=O)c1cc2c(cn1)[nH]c1ccccc12 numeric_readout=91.6
molecule="CN1CC(=O)N=C1NC(=O)Nc1cccc(Cl)c1 [FENOBAM ANHYDROUS]" numeric_readout=79.2
molecule=CCCn1c(=O)c2[nH]c(-c3cnn(Cc4cccc(C(F)(F)F)c4)c3)nc2n(CC)c1=O numeric_readout=18.7
molecule="Cc1cc(-c2ccc(/N=N/c3ccc4c(S(=O)(=O)O)cc(S(=O)(=O)O)c(N)c4c3O)c(C)c2)ccc1/N=N/c1ccc2c(S(=O)(=O)O)cc(S(=O)(=O)O)c(N)c2c1O [EVANS BLUE FREE ACID]" numeric_readout=88.6
molecule=C#C[C@]1(OC(C)=O)CC[C@H]2[C@@H]3CCC4=C/C(=N/O)CC[C@@H]4[C@H]3CC[C@@]21CC numeric_readout=17.1
molecule=O=C(CCCCCCNC(=O)c1cnc(N(c2ccccc2)c2ccccc2)nc1)NO numeric_readout=105

Q. // inhibition lookup, key: N[C@H]1C[C@@H]1c1ccc(-c2cccc(O)c2)cc1
A. 75.3

Q. // inhibition lookup, key: CN(C)Cc1ccc(S(=O)(=O)n2ccc(/C=C/C(=O)NO)c2)cc1
A. 99.2

Q. // inhibition lookup, key: COc1ccc(-c2cc(=O)c3c(O)c(OC)c(O)cc3o2)cc1OC
A. 101

Q. // inhibition lookup, key: O=c1[nH]c(CCl)nc2sc3c(c12)CCCC3
A. 86.5

Q. // inhibition lookup, key: COc1cccc(/C=N/C=N/c2cccc(OC)c2)c1
A. 107

###

Molecular target: Protein deacetylase HDAC6 (Homo sapiens)
Structures can show the parent of a compound that is named as a salt.
IC50 by entry:
Just the number in nM, nothing appended.

Example entries and their recorded answers appear below.
compound=O=C(NO)c1ccc(O)c(O)c1 numeric_readout=6160
compound=O=C(Nc1ccc([N+](=O)[O-])cc1O)Nc1ccccc1Br numeric_readout=612
compound=N[C@H]1C[C@@H]1c1ccc(-c2cccc(O)c2)cc1 numeric_readout=2550
compound=O=C(Nc1cc2cc[nH]c2cn1)c1ccccc1 numeric_readout=184
compound=Oc1ccc(-c2nc3cc(O)cc(Br)c3o2)cc1 numeric_readout=854
compound=O=c1c2c[nH]c3ccccc3c-2nn1-c1ccc(Cl)cc1 numeric_readout=1060
compound=CS(=O)(=O)c1ccc(-c2cn3ccccc3n2)cc1 numeric_readout=777
compound=Nc1nccc(/C=C/c2ccccc2)n1 numeric_readout=775

Q. Observed IC50 on Protein deacetylase HDAC6 (Homo sapiens) for CC(C)c1ccc(-c2cc(=O)c3ccccc3o2)cc1 , please.
A. 1500

Q. Observed IC50 on Protein deacetylase HDAC6 (Homo sapiens) for COc1cc(/C=C/c2ccc(OC)cc2OC)cc(OC)c1 , please.
A. 1540

Q. Observed IC50 on Protein deacetylase HDAC6 (Homo sapiens) for CN(C)CCCN1c2ccccc2Sc2ccc(C(F)(F)F)cc21 [TRIFLUPROMAZINE HYDROCHLORIDE] , please.
A. 3700

Q. Observed IC50 on Protein deacetylase HDAC6 (Homo sapiens) for Cc1cc(/C=C2\SC(=O)N(c3ccccc3)C2=O)c(C)n1-c1cccnc1 , please.
A. 518

Q. Observed IC50 on Protein deacetylase HDAC6 (Homo sapiens) for COc1cc2c(=O)c(-c3ccc(O)cc3)coc2cc1O , please.
A. 676

Q. Observed IC50 on Protein deacetylase HDAC6 (Homo sapiens) for Cc1c(Nc2ncccc2C(=O)O)cccc1C(F)(F)F , please.
A. 798

Q. Observed IC50 on Protein deacetylase HDAC6 (Homo sapiens) for Cc1cc(O)c2c(c1)C(=O)c1cc(O)cc(O)c1C2=O , please.
A. 1080

Q. Observed IC50 on Protein deacetylase HDAC6 (Homo sapiens) for Oc1cccc(Nc2ccc(Nc3cccc(O)c3)nn2)c1 , please.
A. 2830

Q. Observed IC50 on Protein deacetylase HDAC6 (Homo sapiens) for COc1cc(NC(=O)c2ccccn2)ccc1Cl , please.
A. 406

Q. Observed IC50 on Protein deacetylase HDAC6 (Homo sapiens) for COc1cc(/C=C/c2ccc(O)cc2)cc(OC)c1 , please.
A. 551

Q. Observed IC50 on Protein deacetylase HDAC6 (Homo sapiens) for Cc1ccc(-c2ccc(C)cn2)nc1 , please.
A. 1020

Q. Observed IC50 on Protein deacetylase HDAC6 (Homo sapiens) for COc1cccc(-c2cc(=O)c3ccccc3o2)c1N , please.
A. 1840

Q. Observed IC50 on Protein deacetylase HDAC6 (Homo sapiens) for Oc1cc(O)cc(/C=C/c2ccc(O)c(O)c2)c1 , please.
A. 895

Q. Observed IC50 on Protein deacetylase HDAC6 (Homo sapiens) for O=C(O)c1cc([N+](=O)[O-])ccc1NCCCc1ccccc1 , please.
A. 2820
